B1: LINE1-full (parent)
chain: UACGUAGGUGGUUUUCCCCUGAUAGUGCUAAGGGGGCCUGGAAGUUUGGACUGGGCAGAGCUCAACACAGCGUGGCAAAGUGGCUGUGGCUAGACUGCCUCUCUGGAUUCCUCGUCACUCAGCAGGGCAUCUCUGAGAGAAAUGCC

- Variants of: B1
- experimentDescription: self-cleavage, relative activity (ratio to wild type); higher = more cleavage; in vitro, sequencing; the parent is a self-cleaving ribozyme
parameterMeasured: self-cleavage
Give a plain numeric answer without units written out.

mutationCode: U26C U102A
valueObserved: 1.31
--
mutationCode: A2G G35A
valueObserved: 1.2
--
mutationCode: U109C C110A
valueObserved: 1.55
--
mutationCode: G21U A65C
valueObserved: 0
--
mutationCode: G83U U143C
valueObserved: 1.01

// query State its self-cleavage for this variant: A50U A69U
// result 0.07

// query State its self-cleavage for this variant: C84A U112C
// result 0.16

// query State its self-cleavage for this variant: U47C G144A
// result 1.44

// query State its self-cleavage for this variant: U9C A30U
// result 0.87

// query State its self-cleavage for this variant: U62C C146U
// result 0.03

// query State its self-cleavage for this variant: C3U U143A
// result 0.41

// query State its self-cleavage for this variant: U62C U85G
// result 0
